# TARGET_DESC: T1, human IL-25 (human, UniProt Q9H293 33-177)
# T1 sequence: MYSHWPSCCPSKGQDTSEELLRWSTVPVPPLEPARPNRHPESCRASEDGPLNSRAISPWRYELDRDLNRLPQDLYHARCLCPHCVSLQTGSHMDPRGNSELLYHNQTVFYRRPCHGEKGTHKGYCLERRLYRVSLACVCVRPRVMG
# METHOD_DESCRIPTION: cell-based or functional assay
PROPERTY_MEASURED: Cellular inhibition, fold change (fold change)
Response body: numeric value in fold change, unit text excluded.

{"columns": ["BINDER", "Cellular inhibition, fold change [fold change]"],
 "data": [
  ["I25M32 (antibody, V domains shown, One of the 9 candidate IgG1 mAbs of the combinatorial library based on huDDG91) VH: EVQLVESGAEVKKPGASVKVSCKASGYSFSGYTMNWVRQAPGQRLEWMGLINPYNGGTSYNQNFKGRVTLTVDTSASTAYLELNSLRSEDTGVYYCAREDYDSWTFFAMDYWGQGTLVTVS VL: DIQMTQSPSSLSASVGDRVTITCSASQGINEYLNWYQQKPGKVPKLLIYYTSSLHSGVPSRFSGSGSGTDFTLTISSLQPEDVATYYCQQYINFPYTFGQGTKLEIK", 4],
  ["I25M30 (antibody, V domains shown, One of the 9 candidate IgG1 mAbs of the combinatorial library based on huDDG91) VH: EVQLVESGAEVKKPGASVKVSCKASGYSFSGYTMNWVRQAPGQRLEWMGLINPYNGGTSYNQNFKGRVTLTVDTSASTAYLELNSLRSEDTGVYYCAREDFDSWTYFAMDYWGQGTLVTVS VL: DIQMTQSPSSLSASVGDRVTITCSASQGIHWNLNWYQQKPGKVPKLLIYYTSSLHSGVPSRFSGSGSGTDFTLTISSLQPEDVATYYCQQFNSFPYTFGQGTKLEIK", 3],
  ["I25M11 (antibody, V domains shown, One of the 9 candidate IgG1 mAbs of the combinatorial library based on huDDG91) VH: EVQLVESGAEVKKPGASVKVSCKASGYSFSGYTMNWVRQAPGQRLEWMGLINPYNGGTSYNQNFKGRVTLTVDTSASTAYLELNSLRSEDTGVYYCAREDFDSWTFFAMDYWGQGTLVTVS VL: DIQMTQSPSSLSASVGDRVTITCSASQGIASFLNWYQQKPGKVPKLLIYYTSSLHSGVPSRFSGSGSGTDFTLTISSLQPEDVATYYCQQYSSFPYTFGQGTKLEIK", 5]
]}

// next item, Cellular inhibition, fold change requested
Write down Cellular inhibition, fold change measured for item I25M28 (antibody, V domains shown, One of the 9 candidate IgG1 mAbs of the combinatorial library based on huDDG91) VH: EVQLVESGAEVKKPGASVKVSCKASGYSFSGYTMNWVRQAPGQRLEWMGLINPYNGGTSYNQNFKGRVTLTVDTSASTAYLELNSLRSEDTGVYYCAREDFDSWTYFAMDYWGQGTLVTVS VL: DIQMTQSPSSLSASVGDRVTITCSASQGISNYLNWYQQKPGKVPKLLIYYTSSLHSGVPSRFSGSGSGTDFTLTISSLQPEDVATYYCQQYLAFPYTFGQGTKLEIK
16
